Kindly state Total photons number, Leg for each of the entries shown.
- Test system: BALB/c mice
- Protocol: Transfection efficiency: in vivo bioluminescence of luciferase mRNA encapsulated by different LNP
- Assay conditions: intramuscular injection, 5 μg/mice, 6 h
Provide a numeric answer; units are not to be included.

[Q] Reported Total photons number, Leg, compound CCCCC/C=C/C/C=C/CCCCCCCCN(CCCO)CCCCCCCC(=O)OCC(COCCCCCC)(COCCCCCC)COCCCCCC [A21] : ____
[A] 7.11E+08

[Q] I am curious: what Total photons number, Leg value has been reported for CCCCCCOCC(COCCCCCC)(COCCCCCC)COC(=O)CCCCCCCN(CCO)CCCCCCCC(=O)OCC(COCCCCCC)(COCCCCCC)COCCCCCC [A24] ?
[A] 1.56E+08

[Q] Look up Total photons number, Leg for this compound: CCCCCCOCC(COCCCCCC)NC(=O)CCCCCCCN(CCCO)CCCCCCCC(=O)OC(COCCCCCC)COCCCCCC [A25]
[A] 2.49E+08

[Q] Quick one: Total photons number, Leg of CCCCCCCCCCCOC(=O)CCCCCN(CCO)CCCCCCCC(=O)OC(CCCCCCCC)CCCCCCCC [A33, reference compound] ?
[A] 4.62E+08
